Provenance of the data: paper PMC11589101

biological target: human transthyretin (TTR) (Homo sapiens, UniProt P02766); test: FITC-T4 TTR-binding assay, initial (original) method; settings: 1 uM
Lab note: compare % FITCT4 bound to TTR with 80%, writing True if less and False if equal or more.

1) O=C(O)C(F)(OC(F)(F)C(F)(F)C(F)(F)F)C(F)(F)F (stereo not drawn) [GenX, Hexafluoropropylene oxide dimer acid] ... False
2) O=C(O)C(F)(F)C(F)(F)C(F)(F)C(F)(F)C(F)(F)F [PFHxA, Perfluorohexanoic acid] ... True
3) O=S(=O)(O)C(F)(F)C(F)(F)C(F)(F)C(F)(F)C(F)(F)C(F)(F)F [PFHxS, Perfluorohexane sulfonic acid] ... True
4) O=S(=O)(O)C(F)(F)C(F)(F)C(F)(F)C(F)(F)F [PFBS, Perfluorobutane sulfonic acid] ... False
5) CC(C)(C)C(O)C(Oc1ccc(-c2ccccc2)cc1)n1cncn1 (stereo not drawn) [Bitertanol] ... False
6) CC1COC(Cn2cncn2)(c2ccc(Oc3ccc(Cl)cc3)cc2Cl)O1 (stereo not drawn) [Difenoconazole] ... False
7) Cc1cccc2[nH]nnc12 [4-methylbenzotriazole, 4-Methylbenzotriazole] ... False
8) O=S(=O)(O)C(F)(F)C(F)(F)C(F)(F)C(F)(F)C(F)(F)C(F)(F)C(F)(F)C(F)(F)F [PFOS, Perfluorooctane sulfonic acid] ... True
9) O=C(O)C(F)(F)C(F)(F)C(F)(F)C(F)(F)C(F)(F)C(F)(F)C(F)(F)F [PFOA, Perfluorooactanoic acid] ... True

====

// values below are reported % FITCT4 bound to TTR
molecular target: human transthyretin (TTR) (Homo sapiens, UniProt P02766); assay: FITC-T4 TTR-binding assay, initial (original) method; details: 100 uM
MEASURE NAME: % FITCT4 bound to TTR (%)

1) O=C(O)C(F)(F)C(F)(F)C(F)(F)C(F)(F)C(F)(F)F ... 2.971
2) CC(C)(C)C(O)C(Oc1ccc(-c2ccccc2)cc1)n1cncn1 (stereo not drawn) ... 49.6904
3) O=S(=O)(O)C(F)(F)C(F)(F)C(F)(F)C(F)(F)F ... 11.5263
4) O=S(=O)(O)C(F)(F)C(F)(F)C(F)(F)C(F)(F)C(F)(F)C(F)(F)C(F)(F)C(F)(F)F ... -1.121
5) O=C(O)C(F)(F)C(F)(F)C(F)(F)C(F)(F)C(F)(F)C(F)(F)C(F)(F)F ... 0.2557
6) O=C(O)C(F)(OC(F)(F)C(F)(F)C(F)(F)F)C(F)(F)F (stereo not drawn) [GenX, Hexafluoropropylene oxide dimer acid] ... 24.7329
7) O=S(=O)(O)C(F)(F)C(F)(F)C(F)(F)C(F)(F)C(F)(F)C(F)(F)F ... 0.6647
8) CC1COC(Cn2cncn2)(c2ccc(Oc3ccc(Cl)cc3)cc2Cl)O1 (stereo not drawn) ... 44.9874
9) Cc1cccc2[nH]nnc12 ... 21.2593
